src = the supplement of paper PMC10065799

target: MERTK (UniProt Q12866)
Sequence (Q12866 whole entry, looked up): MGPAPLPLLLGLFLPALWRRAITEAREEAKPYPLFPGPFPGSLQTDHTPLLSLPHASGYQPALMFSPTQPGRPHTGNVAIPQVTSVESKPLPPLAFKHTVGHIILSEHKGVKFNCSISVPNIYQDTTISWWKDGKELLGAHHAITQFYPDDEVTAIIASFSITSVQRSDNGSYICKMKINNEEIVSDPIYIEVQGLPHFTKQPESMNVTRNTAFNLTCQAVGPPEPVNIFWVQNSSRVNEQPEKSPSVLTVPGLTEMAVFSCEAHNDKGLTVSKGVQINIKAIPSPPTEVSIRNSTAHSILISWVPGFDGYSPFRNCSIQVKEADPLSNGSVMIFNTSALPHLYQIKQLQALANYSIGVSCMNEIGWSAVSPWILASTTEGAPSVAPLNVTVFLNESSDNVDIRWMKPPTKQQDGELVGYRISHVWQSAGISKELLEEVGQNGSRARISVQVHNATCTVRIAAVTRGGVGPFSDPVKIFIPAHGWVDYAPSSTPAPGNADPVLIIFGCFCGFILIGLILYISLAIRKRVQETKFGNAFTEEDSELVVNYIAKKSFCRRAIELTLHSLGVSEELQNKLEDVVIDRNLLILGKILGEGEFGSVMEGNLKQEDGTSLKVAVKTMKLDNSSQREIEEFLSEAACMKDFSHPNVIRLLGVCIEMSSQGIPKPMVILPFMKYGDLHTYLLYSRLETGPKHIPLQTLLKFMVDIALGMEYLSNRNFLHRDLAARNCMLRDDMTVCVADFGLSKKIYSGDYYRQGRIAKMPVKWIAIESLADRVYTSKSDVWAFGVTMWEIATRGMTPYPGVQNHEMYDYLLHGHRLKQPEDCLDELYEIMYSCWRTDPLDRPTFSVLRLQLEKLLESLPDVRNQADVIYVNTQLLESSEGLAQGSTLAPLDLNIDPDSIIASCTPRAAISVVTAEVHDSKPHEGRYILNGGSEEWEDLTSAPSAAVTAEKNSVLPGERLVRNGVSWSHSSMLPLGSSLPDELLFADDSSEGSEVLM
measurement-description: phosphorylation enrichment, bacterial display (enrichment ratio); higher = better substrate or ligand; peptides without Tyr show the background;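 note: 11-residue human phosphosite peptides and single-mutation variants displayed on the E. coli surface, counted by deep sequencing, each peptide's frequency after selection divided by its frequency in the unselected input library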;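 note: frequency after pTyr selection over input frequency; kinase dosed for 20-30% of maximal phosphorylation in three min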
Please provide measured phosphorylation enrichment for the entries that follow.
Kindly provide the number alone.

May I ask what phosphorylation enrichment has been recorded for VHYLVYHHHHH [CACNA1H_Y519_H516Y] ?
0.773

And the next one, GHGRFYMKEAI [PGM1_Y66_D62H] ?
0.305

And the next one, YTDPYYDYEIE [ZC3H18_Y372_A368T] ?
1.31

And the next one, ASNFNYFYHRE [KCNA1_Y413_V408A] ?
0.398

And the next one, ADCRYYTFPQM [GAMT_Y223_A224T] ?
9.97

And the next one, DDSSAYRSVDE [BCKDHA_Y345] ?
0.485

And the next one, TKQLTYEEQYL [PIK3C3_Y310_D314Y] ?
0.593

And the next one, LIYTNYEAGKD [GSTP1_Y112] ?
7.41

And the next one, NVFGNYNQQPS [HNRNPA2B1_Y306_D302V] ?
0.375

And the next one, FFRDGYMPRQF [GSS_Y270_YF] ?
0.493

And the next one, WNRDKYAATTT [TRIM39_Y439_G436R] ?
0.471

And the next one, PVFIKYLPEWT [PSEN1_Y240_L235P] ?
0.475

And the next one, GGSSPYSRRLA [CDK13_Y351_P356A] ?
0.443

And the next one, IPKTWYSAEQF [CD207_Y217] ?
9.16

And the next one, RDVEQYVNNVN [PCDH19_Y1097_L1094V] ?
0.522

And the next one, RPYRPYIIRGM [LRP5_Y1531] ?
0.852

And the next one, QMVRMYASSFM [AVPR2_Y124_G122R_YF] ?
0.544

And the next one, CEHRGFLYLAI [TEK_Y897_Y897F] ?
0.442

And the next one, ITGNGYFFRVF [MYBPC3_Y1135_I1131T_YF] ?
0.305

And the next one, VEFAKYGSLRG [RET_Y809_YF] ?
0.397

And the next one, QQLDEYQELLD [LMNA_Y359] ?
0.6

And the next one, CLMILYRLKER [PTPRR_Y249] ?
0.364

And the next one, HDRNTYEKYLG [TF_Y666] ?
0.765

And the next one, EMQAAYQKVVA [HBD_Y131_Q126E] ?
0.399

And the next one, RDIHDYIKHLG [UNC13C_Y308] ?
0.46

And the next one, KPMDTYFDSTR [DYNC2H1_Y2230_YF] ?
0.489

And the next one, CTTIHNNYMCN [TP53_Y234_Y234N] ?
0.379

And the next one, NRLNDYIFSFD [RARS1_Y516] ?
0.475

And the next one, SYPREYGSQEG [RBM10_Y48] ?
0.409
